# TEST DESCRIPTION: Thermodynamic solubility in PBS pH 7.4 and in 5% HSA in PBS
# Assay type: physicochemical
# EXPERIMENTAL CONDITIONS: from PBS to 5% HSA in PBS
Where a name gives a salt, the structure may show the parent alone.
ASSAY READOUT: Increase in solubility
Write the numeric value and append its unit.

// recorded Increase in solubility for CCNC(=O)CCC/C=C\C[C@@H]1[C@@H](/C=C/[C@@H](O)CCc2ccccc2)[C@H](O)C[C@@H]1O [Bimatoprost] : 144%

Field Increase in solubility (entry NC(=O)Cc1cccc(C(=O)c2ccccc2)c1N [Nepafenac] ) reads 619%

Increase in solubility in this record for CC(=O)O[C@H]1C[C@@]2(C)[C@@H](C[C@@H](O)[C@H]3[C@@]4(C)CC[C@@H](O)[C@@H](C)[C@@H]4CC[C@@]32C)/C1=C(\CCC=C(C)C)C(=O)O [Fusidic Acid] : 195%

Record CNCC(O)c1ccc(OC(=O)C(C)(C)C)c(OC(=O)C(C)(C)C)c1 (stereo not drawn) [Dipivefrin HCl] , field Increase in solubility: 218%

The compound listed as CN1CCCC(n2nc(Cc3ccc(Cl)cc3)c3ccccc3c2=O)CC1 (stereo not drawn) [Azelastine HCl] shows Increase in solubility equal to 96%

Increase in solubility measured on CCN[C@H]1CN(CCCOC)S(=O)(=O)c2sc(S(N)(=O)=O)cc21 [Brinzolamide] = 42%

Just for reference, patent US12472263B2 is where these values come from.
